Just for reference, patent US20250361322A1 is where these values come from.

binders and their reported IC50, cell viability of A431 cells, Primary ADC, 4 hr, followed by washout (FIG. 20B)
Target: human Tissue Factor (hTF) (human, UniProt P13726 33-295)
Assay: cell-based or functional assay
Measurement Name: IC50, cell viability of A431 cells, Primary ADC, 4 hr, followed by washout (FIG. 20B)

Binder	Recorded Measurement
tisotumab vedotin (TF-011) ADC (antibody, V domains shown, MC-vc-PAB-MMAE on cysteines of the partially reduced antibody (chain and positions not stated), DAR 3-4) VH: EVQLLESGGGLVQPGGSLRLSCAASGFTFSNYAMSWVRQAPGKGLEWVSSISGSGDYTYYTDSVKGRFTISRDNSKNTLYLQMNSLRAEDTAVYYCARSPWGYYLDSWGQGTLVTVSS VL: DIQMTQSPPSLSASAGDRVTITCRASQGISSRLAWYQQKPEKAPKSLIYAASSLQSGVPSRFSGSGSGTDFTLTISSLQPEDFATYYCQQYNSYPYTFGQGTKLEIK	0.17 nM
anti-TF antibody 43B1 conjugated to MC-vc-PAB-MMAE (antibody, IgG1, V domains shown, MC-vc-PAB-MMAE on cysteines of the partially reduced antibody (chain and positions not stated), DAR 3-4) VH: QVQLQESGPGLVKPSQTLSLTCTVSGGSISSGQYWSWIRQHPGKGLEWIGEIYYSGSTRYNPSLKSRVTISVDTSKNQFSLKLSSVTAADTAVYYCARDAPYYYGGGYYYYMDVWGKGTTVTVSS VL: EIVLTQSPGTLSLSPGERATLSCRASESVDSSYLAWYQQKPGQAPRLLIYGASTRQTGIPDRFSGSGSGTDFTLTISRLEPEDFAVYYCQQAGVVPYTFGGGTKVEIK	0.36 nM
25A-vc-MMAE (antibody, IgG1, V domains shown, MC-vc-PAB-MMAE on cysteines of the partially reduced antibody (chain and positions not stated), DAR 3-4, Antibody-drug conjugate (primary ADC) of the IgG1 antibody; also called 25A ADC; 25A conjugated to MC-vc-PAB-MMAE) VH: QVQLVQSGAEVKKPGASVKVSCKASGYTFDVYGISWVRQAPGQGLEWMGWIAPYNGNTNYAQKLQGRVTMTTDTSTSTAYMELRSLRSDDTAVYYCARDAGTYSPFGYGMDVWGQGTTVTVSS VL: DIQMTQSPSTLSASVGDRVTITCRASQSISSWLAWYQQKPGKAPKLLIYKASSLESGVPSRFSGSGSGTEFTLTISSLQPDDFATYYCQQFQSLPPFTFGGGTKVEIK	0.35 nM
